Bmax (MFI) reference
- Tested Target: T1, human glypican-3 (GPC3) (human, UniProt P51654 25-554)
- T1 construct: Endogenous on JHH-7, JHH-5, HepG2 and NCI-H446 tumour cells, or transiently expressed on CHO-S cells from a pTT5 plasmid; also called hGPC3; huGPC3
- Test Method Notes: flow cytometry on JHH-7 cells; antibody after 14 days in mouse plasma at 37 C
Field: numeric (MFI). Do not append units.

[
  {
    "Binder": "H18L6_LC_G34D mAb, v40203 (antibody, human IgG1, kappa, V domains shown) VH: QVQLVQSGAEVKKPGSSVKVSCKASGYTFTDYEMHWVKQAPGHGLEWIGAIDPETGDTAYNQKFKGKATLTADTSTSTAYMELSSLRSEDTAVYYCTRYFSFAYWGQGTLVTVSS VL: EIVLTQSPATLSLSPGERATISCRSSQSLRHSNDNTYLQWYQQKPGQAPRLLIYKVSNRFSGVPARFSGSGSGTDFTLTISSLEPEDFAVYFCYQSKHVPYTFGGGTKVEIKR",
    "Bmax (MFI)": 8060
  },
  {
    "Binder": "H18L6_LC_G34E mAb, v40204 (antibody, human IgG1, kappa, V domains shown, M3-H18L6 chains with the stated light chain point mutation, IgG1/kappa) VH: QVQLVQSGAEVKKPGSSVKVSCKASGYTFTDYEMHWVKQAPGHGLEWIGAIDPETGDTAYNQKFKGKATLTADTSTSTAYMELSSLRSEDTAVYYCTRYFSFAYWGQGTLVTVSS VL: EIVLTQSPATLSLSPGERATISCRSSQSLRHSNENTYLQWYQQKPGQAPRLLIYKVSNRFSGVPARFSGSGSGTDFTLTISSLEPEDFAVYFCYQSKHVPYTFGGGTKVEIKR",
    "Bmax (MFI)": 8430
  }
]

query: # lookup: Bmax (MFI) of H18L6_LC_G34R mAb, v40206 (antibody, human IgG1, kappa, V domains shown, Full-size IgG1/kappa) VH: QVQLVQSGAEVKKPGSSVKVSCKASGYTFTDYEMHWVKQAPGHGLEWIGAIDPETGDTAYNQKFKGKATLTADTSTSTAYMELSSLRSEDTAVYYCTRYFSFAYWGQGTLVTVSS VL: EIVLTQSPATLSLSPGERATISCRSSQSLRHSNRNTYLQWYQQKPGQAPRLLIYKVSNRFSGVPARFSGSGSGTDFTLTISSLEPEDFAVYFCYQSKHVPYTFGGGTKVEIKR
result: 9710
